# experimental-system: T1, Human EphA2-Fc fusion protein (human, UniProt P29317 24-537)
# T1 construct: extracellular domain; Expressed in HEK 293 cells; Biotinylated in the capture ELISAs; also called soluble EphA2 Fc fusion protein; not shown: Fc portion of a human IgG1
# protocol-summary: SPR (BIAcore 3000), purified monomeric scFv, human EphA2
metric: koff (s⁻¹)
Numbers only, in s⁻¹.

VH VL 2E7 scFv (scFv, FLAG and His tags as for 4H5 scFv) scFv: QVQLLESGGGLVQPGGSLRLSCAASGFTFSSYTMSWVRQAPGQALEWMGTISSRGTYTYYPDSVKGRFTISRDNAKNSLYLQMNSLRAEDTAVYYCAREAIFTHWGRGTLVTVSSGGGGSGGGGSGGGGSDIQLTQSPSSLSASVGDRVTITCKASQDINNYGSWYQQKPGQAPRLLIYRANRLVDGVPDRFSGSGYGTDFTLTINNIESEDAAYYFCLKYNRFPYTFGQGTKVEIK; 0.0041

INPUT: Name the reported koff value associated with the binder VH VL 2A4 scFv (scFv, FLAG and His tags as for 4H5 scFv) scFv: QVQLLESGGGLVQPGGSLRLSCAASGFTFSSYTMSWVRQAPGQALEWMGTISSRGTYTYYPDSVKGRFTISRDNAKNSLYLQMNSLRAEDTAVYYCAREAIFTHWGRGTLVTVSSGGGGSGGGGSGGGGSDIQLTQSPSSLSASVGDRVTITCKASQDINNYHSWYQQKPGQAPRLLIYRANRLVDGVPDRFSGSGYGTDFTLTINNIESEDAAYYFCLKYNVFPYTFGQGTKVEIK
OUTPUT: 0.0037

The reported measurements were obtained from patent US20080044413A1.
